The entries below come with measured growth AUC values attached.
System: Coprococcus comes
Assay: growth AUC relative to DMSO control (median of replicates) (fraction); higher = more growth (less inhibition), active = hit call of the paper
Settings: 20 µM; 24 h
Measured Endpoint: growth AUC

compound=COP(=O)(OC)SCn1c(=O)oc2cc(Cl)cnc21 observed_result=1.11
compound=CCOc1nc(NC)nc(NC(=O)NS(=O)(=O)c2ccccc2C(=O)OC)n1 observed_result=0.996
compound=O=C(O)c1cc(Oc2ccc(C(F)(F)F)cc2Cl)ccc1[N+](=O)[O-] observed_result=0.967
compound=CCOP(=S)(OCC)SCSc1ccc(Cl)cc1 observed_result=0.975
compound="Cc1ccccc1CO[C@@H]1C[C@@]2(C(C)C)CC[C@]1(C)O2 (mixture of isomers)" observed_result=1
compound=CCN(Cc1ccc(Cl)nc1)/C(=C/[N+](=O)[O-])NC observed_result=0.959
compound=CN(C)C(=O)Nc1cccc(OC(=O)NC(C)(C)C)c1 observed_result=0.974
compound="CCOP(=S)(OCC)SCS(=O)CC (centres undefined)" observed_result=1.03
compound="O=C(NC(=O)c1c(F)cccc1F)Nc1cc(Cl)c(OC(F)(F)C(F)C(F)(F)F)cc1Cl (centres undefined)" observed_result=0.919
compound=CN1CSC(=S)N(C)C1 observed_result=0.957
compound=BrCCBr observed_result=1.03
compound=N#Cc1nn(-c2c(Cl)cc(C(F)(F)F)cc2Cl)c(N)c1S(=O)(=O)C(F)(F)F observed_result=0.968
compound=Nc1nc(N)nc(NC2CC2)n1 observed_result=1
compound="OC(c1ccc(F)cc1)(c1cncnc1)c1ccccc1Cl (centres undefined)" observed_result=0.962
compound="CC1(C)CC/C(=C\\c2ccc(Cl)cc2)C1(O)Cn1cncn1 (centres undefined)" observed_result=0.974
compound="O=c1oc2ccccc2c(O)c1C(CC(O)c1ccc(-c2ccc(Br)cc2)cc1)c1ccccc1 (centres undefined)" observed_result=0.923
compound=O=C(O)CCl observed_result=0.98
compound="CC(CCl)OP(=O)(OC(C)CCl)OC(C)CCl (mixture of isomers)" observed_result=0.999
compound=CN/C(=N\[N+](=O)[O-])NCc1cnc(Cl)s1 observed_result=1.01
compound=COC(=O)Nc1cccc(OC(=O)Nc2cccc(C)c2)c1 observed_result=1.03
compound=CCC(C)(C)c1ccc(O)cc1 observed_result=1.03
compound=CSc1nc(N=[N+]=[N-])nc(NC(C)C)n1 observed_result=0.963
compound=Cc1ccc(NC(=O)N(C)C)cc1Cl observed_result=0.996
compound=CCOP(=S)(OCC)SCSCC observed_result=0.985

###

System: Akkermansia muciniphila
Assay: growth AUC relative to DMSO control (median of replicates) (fraction); higher = more growth (less inhibition), active = hit call of the paper
Details: 20 µM; 24 h
The entries below come with measured growth AUC values attached.
Measured Endpoint: growth AUC

molecule=O=C(O)c1nc(Cl)ccc1Cl observed_result=1.11
molecule=CON(C)C(=O)Nc1ccc(Cl)c(Cl)c1 observed_result=0.949
molecule=CC1(C)[C@H](C(=O)O[C@H](C#N)c2cccc(Oc3ccccc3)c2)[C@@H]1/C=C\C(=O)OC(C(F)(F)F)C(F)(F)F observed_result=0.955
molecule=CCOP(=S)(OCC)SCCS(=O)(=O)CC observed_result=1.05
molecule=Cc1cc(Cl)ccc1O observed_result=1.04
molecule=CCN(CC)C(=O)SCc1ccc(Cl)cc1 observed_result=0.879
molecule="CNC(=O)ON=C(C)C(C)SC (stereo not drawn)" observed_result=1.1
molecule="CCCCC(C#N)(Cn1cncn1)c1ccc(Cl)cc1 (stereo not drawn)" observed_result=1.04
molecule=CCCCN(CC)c1c([N+](=O)[O-])cc(C(F)(F)F)cc1[N+](=O)[O-] observed_result=0.993
molecule="CCOP(=O)(SC(C)CC)SC(C)CC (stereo not drawn)" observed_result=0.94
molecule="OC(Cn1cncn1)(c1ccc(F)cc1)c1ccccc1F (stereo not drawn)" observed_result=0.876
molecule=O=C(NC(=O)c1c(F)cccc1F)Nc1ccc(CO/N=C(\c2ccc(Cl)cc2)C2CC2)cc1 observed_result=1.02
molecule=c1ccc2c(c1)cc1ccc3cccc4ccc2c1c34 observed_result=1.01
molecule=CN(C)C(CSS(=O)(=O)[O-])CSS(=O)(=O)O.[Na+] observed_result=1.01
molecule="CC1COC(Cn2cncn2)(c2ccc(Oc3ccc(Cl)cc3)cc2Cl)O1 (stereo not drawn)" observed_result=1.03
molecule=Cc1c(N)cccc1N observed_result=0.946
molecule=CN(C)C1CSSSC1.O=C(O)C(=O)O observed_result=0.941
molecule=CCCCOC(=O)N(C)SN(C)C(=O)Oc1cccc2c1OC(C)(C)C2 observed_result=1.03
molecule=Clc1ccc(C(c2ccc(Cl)cc2)C(Cl)(Cl)Cl)cc1 observed_result=1.1
molecule=CCCOc1nn(C(=O)[N-]S(=O)(=O)c2ccccc2C(=O)OC)c(=O)n1C.[Na+] observed_result=0.978
molecule=O=C(Nc1ccccc1)c1ccccc1I observed_result=0.823
molecule=COP(=O)(OC)O/C(=C/Br)c1ccc(Cl)cc1Cl observed_result=1.06
molecule=CC(C)(C)N(NC(=O)c1ccc(Cl)cc1)C(=O)c1ccccc1 observed_result=0.852

###

System: Eubacterium rectale
Assay: growth AUC relative to DMSO control (median of replicates) (fraction); higher = more growth (less inhibition), active = hit call of the paper
Conditions: 20 µM; 24 h
The entries below come with measured growth AUC values attached.
Measured Endpoint: growth AUC

molecule=CC(C)Nc1nc(Cl)nc(NC(C)C)n1 observed_result=1.07
molecule=Cc1cnc2c(C(=O)O)c(Cl)ccc2c1 observed_result=0.934
molecule="CCNc1nc(NC(C)C(C)C)nc(SC)n1 (stereo not drawn)" observed_result=0.89
molecule=c1coc(-c2nc3ccccc3[nH]2)c1 observed_result=1.09
molecule=O=NN(CCO)CCO observed_result=0.977
molecule=Oc1ccccc1Cl observed_result=0.921
molecule=COC(=O)NC(=S)Nc1ccccc1NC(=S)NC(=O)OC observed_result=1.14
molecule=CCOP(=S)(OCC)Oc1nc(Cl)n(C(C)C)n1 observed_result=0.886
molecule=CCOCCN(C(=O)CCl)C(=C(C)C)c1ccccc1 observed_result=0.982
molecule=COP(=O)(OC)Oc1ccc([N+](=O)[O-])cc1 observed_result=1.17
molecule=CC(C)N(Cc1ccccc1)C(=O)C(C)(C)C observed_result=1.03
molecule=CCOP(=S)(OCC)Oc1ccc2c(C)c(Cl)c(=O)oc2c1 observed_result=1.11
molecule=CNC(=O)Oc1cccc2c1OC(C)(C)O2 observed_result=0.967

###

Tested on: Lactobacillus paracasei
Test: growth AUC relative to DMSO control (median of replicates) (fraction); higher = more growth (less inhibition), active = hit call of the paper
Conditions: 20 µM; 24 h
The entries below come with measured growth AUC values attached.
Measured Endpoint: growth AUC

molecule=Clc1ccc(Cl)cc1 measured_endpoint="growth AUC" observed_result=0.936
molecule=CN(C)C(=O)Nc1cccc(C(F)(F)F)c1 measured_endpoint="growth AUC" observed_result=0.985
molecule=Cc1ccc(N(SC(F)(Cl)Cl)S(=O)(=O)N(C)C)cc1 measured_endpoint="growth AUC" observed_result=1
molecule=Clc1c(Cl)c(Cl)c(Cl)c(Cl)c1Cl measured_endpoint="growth AUC" observed_result=0.936
molecule="CNC(=O)ON=C(CS(C)=O)C(C)(C)C (stereo not drawn)" measured_endpoint="growth AUC" observed_result=0.999
molecule=COC(=O)c1ccccc1S(=O)(=O)NC(=O)N(C)c1nc(C)nc(OC)n1 measured_endpoint="growth AUC" observed_result=0.992
molecule=CC(C)Oc1cc(-n2nc(C(C)(C)C)oc2=O)c(Cl)cc1Cl measured_endpoint="growth AUC" observed_result=1.01
molecule=CCOC(=O)c1ccccc1S(=O)(=O)NC(=O)Nc1nc(Cl)cc(OC)n1 measured_endpoint="growth AUC" observed_result=1.05
molecule="CC(Oc1ccc(Oc2ccc(Cl)cc2Cl)cc1)C(=O)O (racemic)" measured_endpoint="growth AUC" observed_result=0.999
molecule="O=C(NC(=O)c1c(F)cccc1F)Nc1ccc(OC(F)(F)C(F)OC(F)(F)F)c(Cl)c1 (stereo not drawn)" measured_endpoint="growth AUC" observed_result=0.958
molecule="CC(C)C1(C)N=C(c2nc3ccccc3cc2C(=O)O)NC1=O (stereo not drawn)" measured_endpoint="growth AUC" observed_result=0.891
molecule=c1ccc(-c2ccccc2)cc1 measured_endpoint="growth AUC" observed_result=0.749
molecule=CNC(=O)Oc1cccc2c1OC(C)(C)C2=O measured_endpoint="growth AUC" observed_result=1.04
molecule="ClC1=C(Cl)[C@]2(Cl)C3CC=CC3[C@@]1(Cl)C2(Cl)Cl (stereo partly drawn)" measured_endpoint="growth AUC" observed_result=1.03
molecule="CC(C)=CC1C(C(=O)OCc2cccc(Oc3ccccc3)c2)C1(C)C (mixture of isomers)" measured_endpoint="growth AUC" observed_result=1.02
molecule=CNC(=O)CSP(=S)(OC)OC measured_endpoint="growth AUC" observed_result=0.962
molecule="OC(Cc1ccccc1Cl)(Cn1[nH]cnc1=S)C1(Cl)CC1 (stereo not drawn)" measured_endpoint="growth AUC" observed_result=1.04
molecule=CCCCOCN(C(=O)CCl)c1c(CC)cccc1CC measured_endpoint="growth AUC" observed_result=1.04
molecule=COc1ccc(-c2ccccc2)cc1NNC(=O)OC(C)C measured_endpoint="growth AUC" observed_result=0.971
molecule=CC(C)N(Cc1ccccc1)C(=O)C(C)(C)C measured_endpoint="growth AUC" observed_result=0.934
molecule=CCCCOC(=O)N(C)SN(C)C(=O)Oc1cccc2c1OC(C)(C)C2 measured_endpoint="growth AUC" observed_result=1.05
molecule=C[N+](C)(C)CCCl.[Cl-] measured_endpoint="growth AUC" observed_result=1.05
molecule=COP(=S)(OC)Oc1ccc(C#N)cc1 measured_endpoint="growth AUC" observed_result=1
molecule=O=C(O)c1ccc(Cl)nc1 measured_endpoint="growth AUC" observed_result=0.974
molecule=CCc1ccc(C(=O)NN(C(=O)c2cc(C)cc(C)c2)C(C)(C)C)cc1 measured_endpoint="growth AUC" observed_result=1.04
molecule=CCOC(=O)/C=C(C)/C=C/C[C@@H](C)CCCC(C)C measured_endpoint="growth AUC" observed_result=1.01
molecule=C1CCC(NC2CCCCC2)CC1.O=NO measured_endpoint="growth AUC" observed_result=0.985
molecule=COCCN(C(=O)CCl)c1c(C)cccc1C measured_endpoint="growth AUC" observed_result=0.831
molecule=CC1(C)CON(Cc2ccccc2Cl)C1=O measured_endpoint="growth AUC" observed_result=1.05
molecule=CCNc1nc(NC(C)C)nc(OC)n1 measured_endpoint="growth AUC" observed_result=0.969
molecule=O=C1c2ccccc2C(=O)N1SC(Cl)(Cl)Cl measured_endpoint="growth AUC" observed_result=0.963
molecule="CCC/C(=N\\OCC)C1=C(O)CC(CC(C)SCC)CC1=O (stereo not drawn)" measured_endpoint="growth AUC" observed_result=0.978
molecule="COCC(C)N(C(=O)CCl)c1c(C)csc1C (stereo not drawn)" measured_endpoint="growth AUC" observed_result=1.01
molecule=CNC(=O)Oc1cc(C)cc(C(C)C)c1 measured_endpoint="growth AUC" observed_result=0.974
molecule=CCOP(=S)(OCC)SCS(=O)(=O)CC measured_endpoint="growth AUC" observed_result=0.967
molecule="O=C(NC(=O)c1c(F)cccc1F)Nc1cc(Cl)c(OC(F)(F)C(F)C(F)(F)F)cc1Cl (stereo not drawn)" measured_endpoint="growth AUC" observed_result=0.976
molecule=CCOP(=S)(OCC)SCn1c(=O)oc2cc(Cl)ccc21 measured_endpoint="growth AUC" observed_result=0.994
molecule=Nc1ccncc1 measured_endpoint="growth AUC" observed_result=1
molecule=N#Cc1cc(Br)c(O)c(Br)c1 measured_endpoint="growth AUC" observed_result=0.988
molecule=CC(C)c1ccc(NC(=O)N(C)C)cc1 measured_endpoint="growth AUC" observed_result=0.98
molecule=Nc1c(Cl)cc([N+](=O)[O-])cc1Cl measured_endpoint="growth AUC" observed_result=1.1
molecule="CCOP(=S)(NC(C)CC)Oc1cc(C)ccc1[N+](=O)[O-] (stereo not drawn)" measured_endpoint="growth AUC" observed_result=0.984
molecule=N#Cc1nn(-c2c(Cl)cc(C(F)(F)F)cc2Cl)c(N)c1C(F)(F)F measured_endpoint="growth AUC" observed_result=0.927
molecule="CCOP(=S)(Oc1ccc([N+](=O)[O-])cc1)c1ccccc1 (stereo not drawn)" measured_endpoint="growth AUC" observed_result=1.07
molecule="ClC1=C(Cl)C2(Cl)C(CBr)CC1(Cl)C2(Cl)Cl (stereo not drawn)" measured_endpoint="growth AUC" observed_result=1.03
molecule=COP(=S)(OC)Oc1ccc(S(C)(=O)=O)c(C)c1 measured_endpoint="growth AUC" observed_result=1.01
molecule=Clc1ccc(C(c2ccc(Cl)cc2)C(Cl)Cl)cc1 measured_endpoint="growth AUC" observed_result=0.994
molecule=CCCN(CCC)c1c([N+](=O)[O-])cc(C(F)(F)F)cc1[N+](=O)[O-] measured_endpoint="growth AUC" observed_result=1.09
